Test system: Staphylococcus aureus
procedureSummary: Antibacterial activity against methicillin-resistant Staphylococcus aureus OM584 after 24 hrs by microdilution method
Assay type: functional
recordedConditions: OM584, 24 h
recordedEndpoint: MIC

Problem: Which MIC is listed for O=c1c(O[C@@H]2O[C@H](CO)[C@H](O)[C@H](O)[C@H]2O)c(-c2ccc(O)c(O)c2)oc2cc(O)cc(O)c12 [HYPEROSIDE] ?
Solution: > 128 µg/mL

Problem: Continue with "O=c1c(O)c(-c2ccc(O)c(O)c2)oc2cc(O)cc(O)c12"
Solution: > 128 µg/mL

Problem: Would you kindly repeat that for "O=c1c(O[C@@H]2O[C@H](CO)[C@H](O)[C@H](O)[C@H]2O)c(-c2ccc(O)c(O)c2)oc2cc(O[C@@H]3O[C@H](CO)[C@H](O)[C@H](O)[C@H]3O)cc(O)c12" ?
Solution: > 128 µg/mL
